procedure_text: Solubility of the compound of formula (I) as a function of time in aqueous solvents (HPLC)
Assay type: physicochemical
measurement_conditions: aqueous buffer, thermodynamic from solid; borate buffer pH 10; 48 hr; 25° C. water bath, agitated

record_smiles: Cc1cnc(NCC(F)(F)c2ccccc2)c(=O)n1CC(=O)NCCONC(=N)N
solubility at 48 h [µg/mL]: 1000

----------
procedure_text: Solubility of the compound of formula (I) as a function of time in aqueous solvents (HPLC)
Type: physicochemical
measurement_conditions: aqueous buffer, thermodynamic from solid; citrate buffer pH 4; 4 hr; 25° C. water bath, agitated
assay_readout: solubility at 4 h (µg/mL)

record_smiles: Cc1cnc(NCC(F)(F)c2ccccc2)c(=O)n1CC(=O)NCCONC(=N)N
assay_readout: solubility at 4 h
units_symbol: µg/mL
reported_result: 2500

----------
procedure_text: Solubility of the compound of formula (I) as a function of time in aqueous solvents (HPLC)
Type: physicochemical
measurement_conditions: aqueous buffer, thermodynamic from solid; citrate buffer pH 4; 2 hr; 25° C. water bath, agitated
assay_readout: solubility at 2 h (µg/mL)

compound: Cc1cnc(NCC(F)(F)c2ccccc2)c(=O)n1CC(=O)NCCONC(=N)N [compound of formula (I)]
units_symbol: µg/mL
reported_result: 2800

----------
procedure_text: Solubility of the compound of formula (I) as a function of time in aqueous solvents (HPLC)
Format: physicochemical
measurement_conditions: aqueous buffer, thermodynamic from solid; citrate buffer pH 6; 2 hr; 25° C. water bath, agitated

molecule: Cc1cnc(NCC(F)(F)c2ccccc2)c(=O)n1CC(=O)NCCONC(=N)N [compound of formula (I)]
solubility at 2 h: 1800 µg/mL

----------
procedure_text: Solubility of the compound of formula (I) as a function of time in aqueous solvents (HPLC)
Type: physicochemical
measurement_conditions: aqueous buffer, thermodynamic from solid; citrate buffer pH 4; 24 hr; 25° C. water bath, agitated

record_smiles: Cc1cnc(NCC(F)(F)c2ccccc2)c(=O)n1CC(=O)NCCONC(=N)N
solubility at 24 h / µg/mL: 2700

----------
procedure_text: Solubility of the compound of formula (I) as a function of time in aqueous solvents (HPLC)
Assay type: physicochemical
measurement_conditions: simulated intestinal fluid (SIF), fassgf or other biorelevant, thermodynamic from solid; SIF (pH ˜6.75); 48 hr; 25° C. water bath, agitated
Procedure: The sample vials were pulled out at each time point, the pH was measured and the sample was filtered a 0.45 μm PTFE membrane filter. The filtrate was appropriately diluted with the dilution solvent and the concentration of the compound was measured using HPLC. […]
assay_readout: solubility at 48 h (µg/mL)

record_smiles: Cc1cnc(NCC(F)(F)c2ccccc2)c(=O)n1CC(=O)NCCONC(=N)N
reported_result: 2700

----------
procedure_text: Solubility of the compound of formula (I) as a function of time in aqueous solvents (HPLC)
Type: physicochemical
measurement_conditions: thermodynamic from solid; water (pH ˜9); 24 hr; 25° C. water bath, agitated

record_smiles: Cc1cnc(NCC(F)(F)c2ccccc2)c(=O)n1CC(=O)NCCONC(=N)N
units_symbol: µg/mL
solubility at 24 h: 1100

----------
procedure_text: Solubility of the compound of formula (I) as a function of time in aqueous solvents (HPLC)
Assay type: physicochemical
measurement_conditions: aqueous buffer, thermodynamic from solid; citrate buffer pH 2; ½ hr; 25° C. water bath, agitated

record_smiles: Cc1cnc(NCC(F)(F)c2ccccc2)c(=O)n1CC(=O)NCCONC(=N)N
solubility at 0.5 h / µg/mL: 7600

Where these numbers come from: patent US20080021044A1
